Tested System: T1, human GPC3 on cells (human, UniProt P51654 25-554)
T1 construct: whole, on cells; over-expressed on CHOK1 cells or endogenous on HEPG2, Hep3B and Huh-7 hepatocellular carcinoma cells; the cell line is named under assay; also called GPC3-CHOK1 cells; human GPC3 over-expressed CHOK1 cells
Experiment Notes: FACS, Huh-7 cells
Measurement Name: EC50 (mg/L)
Give the quantity in mg/L, number only.

Look over these answered cases.
52H5D3B8 chimeric mAb (antibody, V domains shown, also called 52H5D3B8-VH+VL; chimeric 52H5D3B8 mAb) VH: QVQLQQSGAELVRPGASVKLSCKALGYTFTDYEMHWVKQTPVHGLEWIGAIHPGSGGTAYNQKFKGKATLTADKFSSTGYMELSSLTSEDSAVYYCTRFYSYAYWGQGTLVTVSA VL: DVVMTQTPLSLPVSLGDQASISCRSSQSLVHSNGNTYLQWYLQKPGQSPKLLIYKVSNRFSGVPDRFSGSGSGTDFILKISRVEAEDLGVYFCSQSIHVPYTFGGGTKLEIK ... 0.0563
Hu 52H5D3B8-10 (antibody, V domains shown, humanized 52H5D3B8; also called 52H5D3B8 VH4 + VL1) VH: EVQLVQSGAEVKKPGASVKVSCKASGYTFTDYEMHWVRQAPGQGLEWIGAIHPGSGGTAYNQKFKGRVTLTADKSISTAYMELSRLRSDDTAVYYCTRFYSYAYWGQGTLVTVSS VL: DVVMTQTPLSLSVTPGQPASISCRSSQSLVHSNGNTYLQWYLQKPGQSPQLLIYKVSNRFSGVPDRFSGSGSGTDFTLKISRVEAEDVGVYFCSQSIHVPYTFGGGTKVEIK ... 0.0323
Hu 52H5D3B8-12 (antibody, V domains shown, humanized 52H5D3B8; also called 52H5D3B8 VH5 + VL1) VH: EVQLVQSGAEVKKPGASVKVSCKASGYTFTDYEMHWVRQAPGQGLEWIGAIHPGSGGTAYNQKFKGKATLTADKSISTAYMELSRLRSDDTAVYYCTRFYSYAYWGQGTLVTVSS VL: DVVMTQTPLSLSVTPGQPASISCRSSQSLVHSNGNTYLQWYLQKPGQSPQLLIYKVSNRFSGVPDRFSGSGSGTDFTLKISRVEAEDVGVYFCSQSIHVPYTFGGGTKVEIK ... 0.0294

The record that follows has no EC50 shown yet.
stdin: Look up and report measured EC50 for this entry: Hu 52H5D3B8-11 (antibody, V domains shown, humanized 52H5D3B8; also called 52H5D3B8 VH5 + VL0) VH: EVQLVQSGAEVKKPGASVKVSCKASGYTFTDYEMHWVRQAPGQGLEWIGAIHPGSGGTAYNQKFKGKATLTADKSISTAYMELSRLRSDDTAVYYCTRFYSYAYWGQGTLVTVSS VL: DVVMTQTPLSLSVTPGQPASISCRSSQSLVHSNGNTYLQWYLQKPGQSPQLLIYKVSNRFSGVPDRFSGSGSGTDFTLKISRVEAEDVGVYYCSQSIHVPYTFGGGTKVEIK
stdout: 0.0288

These data points were gathered from patent US20240409663A1.
